Biological target: Tau
Assay: rat primary cortical neurons, FLIPR, 25 uM ASO
Bases are written 5' to 3'; sugars and linkages follow in the same order, as letters with counts (s phosphorothioate, o phosphodiester; PS: all linkages phosphorothioate). The collection does not say whether C is 5-methylated. l = locked nucleic acid (LNA); d = 2'-deoxy (DNA)
MEASUREMENT_TYPE: calcium oscillation score

Query string: # query: calcium oscillation score of entry ATGTCGATGCTGCC (sugars l3 d8 l3, PS)
Result string: 137 % of control

Query string: Item AGGCGCGAGCAGCG (sugars l3 d8 l3, PS) has what recorded calcium oscillation score?
Result string: 100 % of control

Query string: Form field: reported calcium oscillation score of TAGACCACATTTCCATC (sugars l3 d11 l3, PS)
Result string: 79.1 % of control

Query string: Reported calcium oscillation score, sequence TTGGATCAGAGGGTCT (sugars l3 d10 l3, PS) : ____
Result string: 11.1 % of control

Query string: Please give the measured calcium oscillation score for this sequence: ATTTCCAAATTCACTTTTAC (sugars lldldldddddddddldlll, PS)
Result string: 122 % of control

Query string: What value of calcium oscillation score has been recorded for this entry: CCATTAATTTAGCCAA (sugars l3 d9 l4, PS)
Result string: 87.2 % of control
